assay_system: human ALK2 R206H (Homo sapiens, UniProt Q04771, R206H)
Sequence (Q04771 21-509 R206H): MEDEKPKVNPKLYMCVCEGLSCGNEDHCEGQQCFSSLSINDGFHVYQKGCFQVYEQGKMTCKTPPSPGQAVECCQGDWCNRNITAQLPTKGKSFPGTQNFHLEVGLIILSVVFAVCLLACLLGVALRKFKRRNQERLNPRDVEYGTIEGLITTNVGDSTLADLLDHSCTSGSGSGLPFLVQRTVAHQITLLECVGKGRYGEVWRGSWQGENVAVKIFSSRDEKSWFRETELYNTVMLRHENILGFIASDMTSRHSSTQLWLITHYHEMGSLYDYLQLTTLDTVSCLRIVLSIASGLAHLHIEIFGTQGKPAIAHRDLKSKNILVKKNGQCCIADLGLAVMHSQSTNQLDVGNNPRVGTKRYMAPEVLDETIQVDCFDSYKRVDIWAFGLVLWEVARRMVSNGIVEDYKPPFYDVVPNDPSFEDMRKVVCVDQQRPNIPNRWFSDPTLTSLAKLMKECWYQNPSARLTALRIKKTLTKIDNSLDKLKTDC
method_notes: Cell-based ALK2-R206H cell activity assay (Smad1-Ser463/Ser465 phosphorylation by AlphaLISA in HEK293-ALK2-R206H cells)
study_conditions: phospho-Smad1 AlphaLISA, read-out: Cell Line (Cell Assay, IC50 class)
Parameter IC50: see the listing below.

{"structure_notation": "Cn1cc(-c2[nH]c3nccc(N4CCN(C(=O)OC5CC5)CC4)c3c2C#N)cn1", "assay_system": "human ALK2 R206H (Homo sapiens, UniProt Q04771, R206H)", "IC50": "≤ 100 nM"}
{"structure_notation": "Cn1cc(-c2[nH]c3nccc(N4CCN(C(=O)OC5CCC5)CC4)c3c2Cl)cn1", "assay_system": "human ALK2 R206H (Homo sapiens, UniProt Q04771, R206H)", "IC50": "≤ 100 nM"}
{"structure_notation": "Cn1cc(-c2cc3c(N4CCN(C(=O)OC5CC(F)(F)C5)CC4)ccnc3[nH]2)cn1", "assay_system": "human ALK2 R206H (Homo sapiens, UniProt Q04771, R206H)", "IC50": "≤ 100 nM"}

Item N#Cc1cnc(-c2cc3c(N4CCN(C(=O)OC5COC5)CC4)ccnc3[nH]2)nc1 has what recorded IC50?
100 to 500 nM

Value source: patent US11236086B2
